Each record here notes measured maximum absorption wavelength.
assay: absorption spectrum (maximum absorption wavelength, molar extinction coefficient); assay type: physicochemical
Answer format: numeric, nm implied, no suffix.

>  <COMPOUND>
COCCOCCOCCOCCOCCOCCOCCOCCOCCOCCOCCOCCOC(=O)C1CCCC(Nc2c3c4c5c(c(OC)c(=O)c6c(O)cc(OC)c(c7c(OC)cc(NC8CCCC(C(=O)OCCOCCOCCOCCOCCOCCOCCOCCOCCOCCOCCOCCOC)C8)c(c2=O)c74)c65)C(C(C)=O)C(C)=C3)C1 (centres unmarked) [HB-15c-PEG12]

>  <maximum absorption wavelength, nm>
630

$$$$

Find the recorded maximum absorption wavelength belonging to COc1c(O)c2c(=O)cc(OC)c3c4c(OC)cc(=O)c5c(NCCOCCO)c(NCCOCCO)c6c(c(c1C(C(C)=O)C(C)=C6)c23)c54 (centres unmarked) [HB-1a] and report it.
630

Any idea what its maximum absorption wavelength is? The compound is COc1c(O)c2c(=O)cc(OC)c3c4c(OC)cc(=O)c5c(NCCSCCOCCO)c(NCCSCCOCCO)c6c(c(c1C(C(C)=O)C(C)=C6)c23)c54 (centres unmarked) [HB-6a-PEG1]
622

Recorded maximum absorption wavelength for COc1c2c3c4c(c(NC(C(=O)O)C(C)C)c(=O)c5c(NC(C(=O)O)C(C)C)cc(OC)c(c6c(OC)cc(O)c(c1=O)c63)c54)C=C(C)C2C(C)=O (centres unmarked) [HB-22c] , please?
620

Any idea what its maximum absorption wavelength is? The compound is COCCOCCOCCOCCOCCOCCOCCN1C(=O)CN(C(=O)OCCNc2c(O)c3c(=O)cc(OC)c4c5c(OC)cc(=O)c6c(NCCOC(=O)N7CC(=O)N(CCOCCOCCOCCOCCOCCOCCOC)C(=O)C7)c(OC)c7c(c(c2C=C(C)C7C(C)=O)c34)c65)CC1=O (centres unmarked) [HB-40b-PEG6]
624

Could you tell me which maximum absorption wavelength is on file for COCCOCCOCCOCCOCCOCCOCCC(=O)N1CCC(CNc2c(O)c3c(=O)c(Br)c(OC)c4c5c(OC)cc(=O)c6c(NCC7CCN(C(=O)CCOCCOCCOCCOCCOCCOCCOC)CC7)c(OC)c7c(c(c2C=C(C)C7C(C)=O)c34)c65)CC1 (centres unmarked) [HB-31b-Br-PEG6] ?
624

Entry COCCOC(=O)C1(Nc2c(NC3(C(=O)OCCOC)CC3)c3c(=O)cc(OC)c4c5c(OC)cc(=O)c6c(O)c(OC)c7c(c(c2C=C(C)C7)c34)c65)CC1 [HC-35a-PEG1] : reported maximum absorption wavelength = ?
622

Request the reported maximum absorption wavelength associated with COCCOCCOCCOCCOCCOCCOCCOCCOCCOCCOCCOCCOCCC(=O)OC1CCC(Nc2c3c4c5c(c(OC)c(=O)c6c(O)cc(OC)c(c7c(OC)cc(NC8CCC(OC(=O)CCOCCOCCOCCOCCOCCOCCOCCOCCOCCOCCOCCOCCOC)CC8)c(c2=O)c74)c65)C(C(C)=O)C(C)=C3)CC1 (centres unmarked) [HB-17c-PEG12]
632

Return reported maximum absorption wavelength; argument: COc1c(NCCCC(=O)O)c2c(=O)cc(OC)c3c4c(OC)cc(=O)c5c(O)c(NCC(=O)O)c6c(c(c1C(C(C)=O)C(C)=C6)c23)c54 (centres unmarked) [HB-43b]
618
